- study.system: T1, human IL-18BP (human, UniProt O95998 31-194)
- T1 construct: UniProt printed as 095998; also called hIL-18BP
- T1 sequence: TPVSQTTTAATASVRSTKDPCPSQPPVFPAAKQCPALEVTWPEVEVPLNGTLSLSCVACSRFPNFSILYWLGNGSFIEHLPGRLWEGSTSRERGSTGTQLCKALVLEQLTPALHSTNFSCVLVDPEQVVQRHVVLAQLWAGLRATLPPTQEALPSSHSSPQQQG
- assay.text: BLI, apparent KD
assay.endpoint: Kd (nM)
Numeric only. Scale: nM

SA301a HC-G55F (antibody, name in Kabat numbering, V domains shown, IgG1 kappa) VH: QVQLQESGPGLVKPSQTLSLTCTVSGYSITSDYNSHWIRQPPGKGLEWIGYIHYSFSTNYNPSLKSRVTISRDTSKNQFSLKLSSVTAADTAVYYCARNYGSIYVNYFDYWGQGTLVTVSS VL: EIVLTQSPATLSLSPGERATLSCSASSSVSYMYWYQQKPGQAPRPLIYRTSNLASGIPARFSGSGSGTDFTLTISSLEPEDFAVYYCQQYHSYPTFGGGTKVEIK ... 1.17
SA301a HC-S56I (antibody, name in Kabat numbering, V domains shown, IgG1 kappa) VH: QVQLQESGPGLVKPSQTLSLTCTVSGYSITSDYNSHWIRQPPGKGLEWIGYIHYSGITNYNPSLKSRVTISRDTSKNQFSLKLSSVTAADTAVYYCARNYGSIYVNYFDYWGQGTLVTVSS VL: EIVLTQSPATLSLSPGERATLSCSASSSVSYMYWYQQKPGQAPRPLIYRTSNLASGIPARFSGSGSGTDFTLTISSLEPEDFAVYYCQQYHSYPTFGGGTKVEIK ... 0.48

The binder identified as SA301a HC-T57R (antibody, name in Kabat numbering, V domains shown, IgG1 kappa) VH: QVQLQESGPGLVKPSQTLSLTCTVSGYSITSDYNSHWIRQPPGKGLEWIGYIHYSGSRNYNPSLKSRVTISRDTSKNQFSLKLSSVTAADTAVYYCARNYGSIYVNYFDYWGQGTLVTVSS VL: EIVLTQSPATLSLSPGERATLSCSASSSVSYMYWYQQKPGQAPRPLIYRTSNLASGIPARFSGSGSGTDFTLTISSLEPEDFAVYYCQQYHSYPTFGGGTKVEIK registered its Kd at 0.67
